Collected MIC values appear next to each entry.
Tested on: S. aureus ATCC 25923
Test: MIC, broth microdilution
Format: cell-based, Staphylococcus aureus
Conditions: Staphylococcus aureus, ATCC25923, 24 h, ATCC strain
Report the value in µg/mL with no unit label.

Reference set, count: 6
- molecule: "COC(=O)CCC(C)C1CCC2C3C(O)CC4CC(NCCCNCCCCNCCCN)CCC4(C)C3CCC12C (stereo not shown)"
  units_text: "µg/mL"
  value_measured: 4
- molecule: "CC(C)OC(=O)CCC(C)C1CCC2C3C(O)CC4CC(NCCCNCCCCNCCCN)CCC4(C)C3CC(O)C12C (stereo not shown)"
  units_text: "µg/mL"
  value_measured: 8
- molecule: "CC(C)OC(=O)CCC(C)C1CCC2C3CCC4CC(NCCCNCCCCNCCCN)CCC4(C)C3CCC12C (stereo not shown)"
  units_text: "µg/mL"
  value_measured: 4
- molecule: "COC(=O)CCC(C)C1CCC2C3C(O)CC4CC(NCCCCCCN)CCC4(C)C3CC(O)C12C (stereo not shown)"
  units_text: "µg/mL"
  value_measured: 3
- molecule: "COC(=O)CCC(C)C1CCC2C3CCC4CC(NCCNCCNCCNCCNCN)CCC4(C)C3CC(O)C12C (stereo not shown)"
  units_text: "µg/mL"
  value_measured: 4
- molecule: "CC(C)OC(=O)CCC(C)C1CCC2C3C(O)CC4CC(NCCCNCCCCN)CCC4(C)C3CC(O)C12C (stereo not shown)"
  units_text: "µg/mL"
  value_measured: 7

Record request: MIC value, item CC(C)OC(=O)CCC(C)C1CCC2C3CCC4CC(NCCCNCCCCN)CCC4(C)C3CC(O)C12C (stereo not shown)
7

----------
This listing pairs compounds with measured log10 MIC.
Tested on: P. aeruginosa ATCC 27853
Experiment: MIC, broth microdilution
Type: cell-based, Pseudomonas aeruginosa
Conditions: Pseudomonas aeruginosa, ATCC27853, 24 h, ATCC strain
Field: value | Transform: log10 | Quantity: MIC | Unit: mg/L

Worked cases, answers included:
- compound: "CC(C)OC(=O)CCC(C)C1CCC2C3CCC4CC(NCCCNCCCCNCCCN)CCC4(C)C3CCC12C (stereo not shown)"
  log10 MIC: 1.18
- compound: "CC(C)OC(=O)CCC(C)C1CCC2C3C(O)CC4CC(NCCCNCCCCN)CCC4(C)C3CC(O)C12C (stereo not shown)"
  log10 MIC: 1.18
- compound: "CC(C)OC(=O)CCC(C)C1CCC2C3C(O)CC4CC(NCCCN5CCN(CCCN)CC5)CCC4(C)C3CCC12C (stereo not shown)"
  log10 MIC: 1.48

What does the data say about its log10 MIC? Entry: CC(C)OC(=O)CCC(C)C1CCC2C3C(O)CC4CC(NCCN(CCN)CCN)CCC4(C)C3CCC12C (stereo not shown)
2.04

Next compound: COC(=O)CCC(C)C1CCC2C3CCC4CC(NCCCNCCCN)CCC4(C)C3CCC12C (stereo not shown)
1.51

// same read-out, input: CC(C)OC(=O)CCC(C)C1CCC2C3C(O)CC4CC(NCCCNCCCN)CCC4(C)C3CCC12C (stereo not shown)
1.45

Item: CC(C)OC(=O)CCC(C)C1CCC2C3CCC4CC(NCCN(CCN)CCN)CCC4(C)C3CCC12C (stereo not shown)
2.04

Item: CC(C)OC(=O)CCC(C)C1CCC2C3C(O)CC4CC(NCCCNCCCNCCCN)CCC4(C)C3CCC12C (stereo not shown)
1.20

Please give the result for COC(=O)CCC(C)C1CCC2C3C(O)CC4CC(NCCCCCCN)CCC4(C)C3CC(O)C12C (stereo not shown) too.
1.11

Similarly, CC(C)OC(=O)CCC(C)C1CCC2C3CCC4CC(NCCCN5CCN(CCCN)CC5)CCC4(C)C3CCC12C (stereo not shown) ?
1.78

Same read-out for CC(C)OC(=O)CCC(C)C1CCC2C3CCC4CC(NCCCNCCCCN)CCC4(C)C3CCC12C (stereo not shown) ?
1.43

For CC(C)OC(=O)CCC(C)C1CCC2C3CCC4CC(NCCCNCCCCN)CCC4(C)C3CC(O)C12C (stereo not shown) then?
1.15

And the next one, COC(=O)CCC(C)C1CCC2C3CCC4CC(NCCNCCNCCNCCNCN)CCC4(C)C3CC(O)C12C (stereo not shown) ?
0.90

And for COC(=O)CCC(C)C1CCC2C3C(O)CC4CC(NCCCNCCCNCCCN)CCC4(C)C3CCC12C (stereo not shown) ?
1.46

Note, next up: COC(=O)CCC(C)C1CCC2C3C(O)CC4CC(NCCCNCCCCNCCCN)CCC4(C)C3CCC12C (stereo not shown)
1.48

Input CC(C)OC(=O)CCC(C)C1CCC2C3CCC4CC(NCCCNCCCNCCCN)CCC4(C)C3CC(O)C12C (stereo not shown)
0.90

----------
System: Chinese hamster Ovary cells (CHO-K1)
Experiment: Cytotoxicity assay (WST-1 / Neutral Red)
Assay type: cell-based
Conditions: Cricetulus griseus, 24 h, 24-h incubation
Hi! Could you tag entries with IC50 below 70 µg/mL as 1 (yes), and those at or above as 0 (no)? Much appreciated.

Strictly below 70 µg/mL in IC50? CC(C)OC(=O)CCC(C)C1CCC2C3CCC4CC(NCCCNCCCCN)CCC4(C)C3CCC12C (stereo not drawn) [Claramine E03]
1 (yes)

Also CC(C)OC(=O)CCC(C)C1CCC2C3C(O)CC4CC(NCCCNCCCCN)CCC4(C)C3CC(O)C12C (stereo not drawn) [Claramine B14] , if possible.
1 (yes)

Input CC(C)OC(=O)CCC(C)C1CCC2C3CCC4CC(NCCCNCCCN)CCC4(C)C3CC(O)C12C (stereo not drawn) [Claramine A04]
1 (yes)

And what about the compound COC(=O)CCC(C)C1CCC2C3C(O)CC4CC(NCCCNCCCCNCCCN)CCC4(C)C3CCC12C (stereo not drawn) [Claramine C01] ?
1 (yes)

Another compound: CC(C)OC(=O)CCC(C)C1CCC2C3CCC4CC(NCCCN5CCN(CCCN)CC5)CCC4(C)C3CC(O)C12C (stereo not drawn) [Claramine A26]
0 (no)

Okay, and CC(CCC(=O)OCC(F)(F)F)C1CCC2C3CCC4CC(NCCCNCCCCNCCCN)CCC4(C)C3CC(O)C12C (stereo not drawn) [Claramine A24] ?
0 (no)

Check COC(=O)CCC(C)C1CCC2C3CCC4CC(NCCCNCCCN)CCC4(C)C3CC(O)C12C (stereo not drawn) [Claramine A08] too.
1 (yes)

Follow-up entry: CC(C)OC(=O)CCC(C)C1CCC2C3C(O)CC4CC(NCCCNCCCN)CCC4(C)C3CC(O)C12C (stereo not drawn) [Claramine B15]
0 (no)

Moving on to the next compound: CC(C)OC(=O)CCC(C)C1CCC2C3CCC4CC(NCCCN5CCN(CCCN)CC5)CCC4(C)C3CCC12C (stereo not drawn) [Claramine E05]
1 (yes)

How about this compound: COC(=O)CCC(C)C1CCC2C3C(O)CC4CC(NCCCNCCCN)CCC4(C)C3CC(O)C12C (stereo not drawn) [Claramine B02]
1 (yes)

Next up: CC(C)OC(=O)CCC(C)C1CCC2C3C(O)CC4CC(NCCCN5CCN(CCCN)CC5)CCC4(C)C3CC(O)C12C (stereo not drawn) [Claramine B16]
0 (no)

----------
Tested on: P. aeruginosa 1051575
Experiment: MIC, broth microdilution
Assay type: cell-based, Pseudomonas aeruginosa
Settings: Pseudomonas aeruginosa, 1051575, 24 h, 24 h
value_type: log10 MIC (log10 of the value in µg/mL)
Recorded MIC (log10, µg/mL)

May I ask what log10 MIC has been recorded for CC(C)OC(=O)CCC(C)C1CCC2C3CCC4CC(NCCCNCCCN)CCC4(C)C3CCC12C (stereo not drawn) ?
0.48

Record: CCOC(=O)CCC(C)C1CCC2C3C(O)CC4CC(NCCCNCCCCNCCCN)CCC4(C)C3CCC12C (stereo not drawn)
1.18

Proceed to CC(C)OC(=O)CCC(C)C1CCC2C3CCC4CC(NCCCNCCCNCCCN)CCC4(C)C3CC(O)C12C (stereo not drawn)
0.90

----------
Measured MIC E. coli 25922, listed per entry for reference.
Tested on: E. coli ATCC 25922
Experiment: MIC, broth microdilution
Assay type: cell-based, Escherichia coli
Conditions: ATCC strain, 24 h
Provide only the numeric value, understood in µg/mL.

- compound: "COC(=O)CCC(C)C1CCC2C3C(O)CC4CC(NCCCNCCCNCCCN)CCC4(C)C3CCC12C (stereo not shown) [Claramine C02]"
  target_entity: "E. coli ATCC 25922"
  value_measured: 15

Checklist item: MIC E. coli 25922 tested on E. coli ATCC 25922, entry CC(C)OC(=O)CCC(C)C1CCC2C3C(O)CC4CC(NCCCNCCCCN)CCC4(C)C3CCC12C (stereo not shown) [Claramine C27] , value?
56

Check CC(C)OC(=O)CCC(C)C1CCC2C3C(O)CC4CC(NCCCNCCCCN)CCC4(C)C3CCC12C (stereo not shown) [Claramine C18] too.
14

Then what about the compound COC(=O)CCC(C)C1CCC2C3C(O)CC4CC(NCCCNCCCNCCCN)CCC4(C)C3CCC12C (stereo not shown) [Claramine D02] ?
4
